# System: HOP-62 NSCLC
# Assay Comment: NCI-60 one-dose screen, 48 h
# Recorded Conditions: 10 µM unless noted
This is part of a sample that, as a whole, favours compounds with a hit. Of some 83,000 tested, about 20% had one in any assay. The source made the active and inactive calls. The calls were made as follows: active = growth percent below 10; inactive = the rest.
Outcome codes: YES (active), NO (inactive)

INSERT INTO assay_data (compound, assayed_system, assigned_label) VALUES
  ('COc1cc2c(=O)n(CCCN(C)C)c3c4cc[nH]c4ncc3c2cc1OC', 'HOP-62 NSCLC', 'NO'),
  ('CCN1C(=O)N(CC)C2C1N=C(SC)N2/N=C/C=C/c1ccccc1OC (centres undefined)', 'HOP-62 NSCLC', 'NO'),
  ('O=C1OCC2=C1C(c1ccccc1)c1cc3c(cc1N2CCO)CCC3 (centres undefined)', 'HOP-62 NSCLC', 'NO'),
  ('CC(=O)Oc1c(Cl)c(Cl)c(Cl)c(Cl)c1Cl', 'HOP-62 NSCLC', 'NO'),
  ('Cc1ccccc1Nc1n[nH]c(Cc2ccccc2)n1', 'HOP-62 NSCLC', 'NO'),
  ('C=C1C[C@@]2(C)C(CC[C@]3(C)C2CC=C2C4CC(C)(C)C[C@@H](OC(=O)/C(C)=C\C)[C@]4(C(=O)O)CC[C@]23C)C(C)(C)C1=O (some centres undefined)', 'HOP-62 NSCLC', 'NO'),
  ('CC(C)N(C(=S)SSC(=S)N(C(C)C)C(C)C)C(C)C', 'HOP-62 NSCLC', 'NO'),
  ('CC(=O)c1ccc(N2C(=O)c3ccc(Oc4ccccc4)cc3C2=O)cc1', 'HOP-62 NSCLC', 'NO'),
  ('CCCCCCCCCCCCCC1=NC(C)(C)CN1C(C)C', 'HOP-62 NSCLC', 'YES'),
  ('C#C[C@]1(O)CC[C@H]2[C@@H]3CC=C4c5sc(-c6cccc(Br)c6)nc5CC[C@]4(C)[C@H]3CC[C@@]21C', 'HOP-62 NSCLC', 'NO'),
  ('O=C(c1ccccc1)C(CCc1ccccn1)CCc1ccccn1', 'HOP-62 NSCLC', 'NO'),
  ('CCOC(=O)C1C(=O)C=C(c2cc(OC)c(OC)c(OC)c2)CC1c1sc(N(C)Cc2ccccc2)nc1Cl (centres undefined)', 'HOP-62 NSCLC', 'NO'),
  ('Cc1ccccc1C1CC(=O)c2ccccc2C1C (centres undefined)', 'HOP-62 NSCLC', 'NO'),
  ('CCCCCCCCCCCCCC', 'HOP-62 NSCLC', 'NO');
